# system_name: alpha2A receptor (Homo sapiens)
# Sequence (P08913 1-465): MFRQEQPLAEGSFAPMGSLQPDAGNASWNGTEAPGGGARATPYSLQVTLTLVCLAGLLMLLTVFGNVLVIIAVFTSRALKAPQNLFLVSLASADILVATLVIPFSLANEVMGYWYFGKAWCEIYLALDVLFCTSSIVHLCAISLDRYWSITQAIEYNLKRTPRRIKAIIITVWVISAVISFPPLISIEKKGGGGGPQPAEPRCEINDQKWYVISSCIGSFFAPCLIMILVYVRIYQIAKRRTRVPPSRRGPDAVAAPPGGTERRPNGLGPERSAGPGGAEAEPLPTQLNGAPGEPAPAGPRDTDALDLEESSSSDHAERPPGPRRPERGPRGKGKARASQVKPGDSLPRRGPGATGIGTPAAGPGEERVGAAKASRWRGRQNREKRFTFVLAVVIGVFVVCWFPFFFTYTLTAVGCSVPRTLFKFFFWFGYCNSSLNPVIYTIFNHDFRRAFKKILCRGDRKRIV
# assay_method_text: Alpha2A agonistic activity in vitro
# Type: cell-based
# test_conditions: in vitro
Provide the reported Alpha2A Intrinsic Activity of each item.
Answers are plain numbers.

# annotated cases, reported Alpha2A Intrinsic Activity shown
> print(dat)
                                   molecule  measurement
1  CC1Cc2c(Cl)cccc2C(C2=NCCN2)O1 (centres unmarked)         0.82
2  FC(F)(F)CC1Cc2c(Br)cccc2C(C2=NCCN2)O1 (single isomer, unassigned) [Example 68]         0.25
3  CC(O)c1cccc2c1CCOC2C1=NCCN1 (centres unmarked)         0.47

Hi! Can you tell me Alpha2A Intrinsic Activity for each of these molecules?
1. CC[C@@H]1Cc2c(Cl)cccc2C(C2=NCCN2)O1 (some centres unmarked)
2. CCc1cccc2c1C[C@@H](CC)OC2C1=NCCN1 (some centres unmarked)
3. CC1COC(C2=NCCN2)c2cccc(Br)c21 (centres unmarked)

Result:
0.94
0.22
0.87

Answer for every listed entry: what is its Alpha2A Intrinsic Activity? The entries follow.
1. CCCC1Cc2c(Br)cccc2C(C2=NCCN2)O1 (centres unmarked) [Example 40]
2. Clc1cccc2c1CCOC2C1=NCCN1 (single isomer, unassigned) [Example 92]

Result:
0.31
0.78

====

Exercise: for every item that follows, state its recorded Alpha2A Intrinsic Activity.
# system_name: alpha2A receptor (Homo sapiens)
# assay_method_text: Alpha2A agonistic activity in vitro
# Assay type: cell-based
# test_conditions: in vitro
Answers are plain numbers.

Worked examples follow.
> print(dat)
                                   compound           measured.endpoint  measurement
1  CC1(C2=NCCN2)OCc2cccc3cccc1c23 (single isomer, unassigned) [Example 103]  Alpha2A Intrinsic Activity         0.74
2  C#Cc1cccc2c1CCOC2C1=NCCN1 (stereo not drawn)  Alpha2A Intrinsic Activity         0.88
3  CSc1cccc2c1CCOC2C1=NCCN1 (stereo not drawn)  Alpha2A Intrinsic Activity         0.75
4  C[C@@H]1Cc2c(Cl)cccc2C(C2=NCCN2)O1 (stereo partly drawn)  Alpha2A Intrinsic Activity         0.93
5  c1cc2c3c(cccc3c1)C(C1=NCCN1)OC2 (stereo not drawn)  Alpha2A Intrinsic Activity         0.82

// for each compound in input: emit Alpha2A Intrinsic Activity
1. CC[C@@H]1Cc2c(OC)cccc2C(C2=NCCN2)O1 (stereo partly drawn)
2. CC1(C2=NCCN2)SCCc2c(Br)cccc21 (stereo not drawn)

Result:
0.51
0.43
